Target: Progesterone receptor (Homo sapiens, UniProt P06401)
Sequence (P06401 whole entry): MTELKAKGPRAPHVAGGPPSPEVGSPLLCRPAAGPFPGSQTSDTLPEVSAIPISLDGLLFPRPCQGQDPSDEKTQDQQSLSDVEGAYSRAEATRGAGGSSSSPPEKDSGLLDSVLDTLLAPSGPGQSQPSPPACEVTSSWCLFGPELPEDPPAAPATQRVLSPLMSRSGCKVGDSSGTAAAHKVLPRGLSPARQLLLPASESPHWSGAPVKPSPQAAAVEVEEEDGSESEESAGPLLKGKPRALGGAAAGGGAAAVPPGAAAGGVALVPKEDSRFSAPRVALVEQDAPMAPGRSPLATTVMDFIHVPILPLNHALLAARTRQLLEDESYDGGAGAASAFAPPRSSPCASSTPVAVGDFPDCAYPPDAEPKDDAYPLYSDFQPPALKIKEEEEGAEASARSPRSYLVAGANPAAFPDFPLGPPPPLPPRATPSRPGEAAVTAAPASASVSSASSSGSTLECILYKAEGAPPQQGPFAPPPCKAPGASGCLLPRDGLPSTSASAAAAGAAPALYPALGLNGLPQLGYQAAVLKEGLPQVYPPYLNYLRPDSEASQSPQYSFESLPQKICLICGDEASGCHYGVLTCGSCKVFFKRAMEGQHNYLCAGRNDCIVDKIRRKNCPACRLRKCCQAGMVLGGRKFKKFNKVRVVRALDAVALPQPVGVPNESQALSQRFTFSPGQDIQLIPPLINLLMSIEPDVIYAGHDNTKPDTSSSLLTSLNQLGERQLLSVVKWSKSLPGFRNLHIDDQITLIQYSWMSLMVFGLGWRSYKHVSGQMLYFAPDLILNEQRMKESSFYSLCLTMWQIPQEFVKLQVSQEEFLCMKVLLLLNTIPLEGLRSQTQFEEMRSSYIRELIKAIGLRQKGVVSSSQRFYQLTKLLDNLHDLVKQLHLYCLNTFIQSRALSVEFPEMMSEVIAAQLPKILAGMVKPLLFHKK
Assay: Agonistic activity to the human progesterone receptor (hPR)assayed in CV-1 cells in cotransfection assay.
attribute-measured: EC50 (nM)

CC1=CC(C)(C)Nc2ccc3c(c21)C(c1cccc(C(F)(F)F)c1)Oc1ccccc1-3 (stereo not given) ... 13
CC1=CC(C)(C)Nc2ccc3c(c21)C(c1ccc(Br)cc1)Oc1ccccc1-3 (stereo not given) ... 14
CC1=CC(C)(C)Nc2ccc3c(c21)C(c1cccc(Cl)c1)Oc1ccccc1-3 (stereo not given) ... 18
